Tested on: Salmonella enterica
procedureDetails: Binding affinity to Salmonella enterica Threonyl-tRNA synthetase assessed as change in melting temperature at 0.5 mM incubated for 10 mins by SYPRO orange dye-based thermal shift assay
measuredQuantity: ΔTm (°C)
Write down the numeric answer in °C and omit the unit.

Worked examples, 2 molecules total:
{"columns": ["chemicalString", "measuredQuantity", "reportedValue"],
 "data": [
  ["C[C@@H](O)[C@H](N)C(=O)NC/C=C/Cn1cnc2cc(C(F)(F)F)ccc2c1=O", "ΔTm", 11.9],
  ["C[C@@H](O)[C@H](N)C(=O)NC/C=C/Cn1cnc2cc3ccccc3cc2c1=O", "ΔTm", 16.9]
]}

The molecule listed as C[C@@H](O)[C@H](N)C(=O)NC/C=C/Cn1cnc2cc(Cl)c(Cl)cc2c1=O has a reported ΔTm of 23.7

The molecule listed as C[C@@H](O)[C@H](N)C(=O)NC/C=C/Cn1cnc2cc(Br)c(Br)cc2c1=O has a reported ΔTm of 20.3

The molecule listed as C[C@@H](O)[C@H](N)C(=O)NC/C=C/Cn1cnc2ccccc2c1=O has a reported ΔTm of 9.2
